Would you kindly list Neut IC50 (ug/ml) subtype A for each of these binders?
Molecular target: RSV F protein of subtype A strain A2, on virus (respiratory syncytial virus subtype A …, UniProt P03420 26-574)
Assay: cell-based or functional assay
Hi! Could you send only the number? It should be in µg/mL, unit omitted.

Record ADI-15589 (antibody, V domains shown) VH: QVQLQQWGAGLLKPSETLSLTCAVYGGSFSGYYWGWIRQPPGKGLEWIGEVNHSGTSNYNPSLTSRVTISVDPSKKQLSLKLNSVTAADTAVYYCARAPWYTHAMDVWGQGTTVTVSS VL: QSVLTQPASVSGSPGQSITISCTRTSSDVGAYSYVSWYQQHPGKAPKLMIYDVNNRPSGVSNRFSGSKSGNTASLTISGLQAEDEADYYCSSYTNSNTLGVFGGGTKLTVL , field Neut IC50 (ug/ml) subtype A: 0.876

// ADI-15661 (antibody, V domains shown) VH: EVQLVESGGGVVQPGRSLRLSCEASGFNFHNYDIQWVRQAPGKGLEWVALVLFDGSKKYYPHSVKGRFAISRDNSKKTLFLQMNSLRPEDTAVYYCARAPVTGASYYLDYWGQGTLVTVSS VL: SYVLTQPPSVSVAPGQTARITCGANNIGNKGVHWYQQKPGQAPVLVVYDDDDQPSGIPERFSGSNSGNTATLTISRVEAGDEADYYCQVWDSTSDHLVFGGGTQLTVL : Neut IC50 (ug/ml) subtype A value = 0.021

Memo: ADI-15610 (antibody, V domains shown, IgG; also called Antibody Number 175) VH: EVQLLESGAEVKKPGSSVKVSCKASGGTFSSYAITWVRQAPGQGLEWMGGIIPILGTTTYAQRFQGRVTITADKSTTTAYMELSRLRSEDTAVYYCAKTVSQYPNTYNYGMDVWGQGTTVTVSS VL: EIVMTQSPSSLSASVGDRVTITCRASQSVSIYLNWYQQKPGKTPELLIYGASRLQSGVPSRFSGSGSGTDFTLTISSLQPEDFATYYCLQTYSTPLTFGQGTKVEIK , reported Neut IC50 (ug/ml) subtype A: 0.727

// field: Neut IC50 (ug/ml) subtype A; key: ADI-15601 (antibody, V domains shown, IgG) VH: EVQLLETGGGLVKPGGSLRLSCEATGFTFSDFAMSWVRQAPGKGLEWVSLIKSSDYPYYADSVRGRFTISRDNSKNTLYLRMDNLRADDTAVYYCAKDADFWSGEAYNGGYNFDSWGQGTLVTVSS VL: EIVLTQSPATLSVSPGERATLSCRASQSIGTNLAWYQQKPGQAPRLLIFGASTRATGIPARFTGSGSGTEFTLTIGSLQSEDFAVYYCQQYNQWPPITFGGGTKVEIK ; value = 0.046

Short answer for ADI-15643 (antibody, V domains shown, IgG) VH: QVQLVQSGAEVKKPGESLKISCKTSGYRFTNYWIGWVRQMPGKGLEWMGIIYPGDSDARYSPSFQGQVTFSADKSISTAYLHWSSLKASDTAMYYCARQDDSGWADFFPFDYWGQGTLVTVSS VL: EIVLTQSPGTLSLSPGERATLSCRASHSFSSTYLAWYQQKPGQAPRLLIYAASNRATGIPDRFSGSGSGTDFTLTISRLEPEDFAVYFCQQYDSSPWTFGQGTKLEIK : Neut IC50 (ug/ml) subtype A was 0.039

Reported Neut IC50 (ug/ml) subtype A ( ADI-15622 (antibody, V domains shown, IgG; also called Antibody Number 187) VH: QVQLQESGGGLVQPGGSLRLSCSASGFTFSNYGMSWVRQAPGKGLEWVSGIGVSDGSTHYADSVKGRFIISRDNSKNMLSLQMSSLGVDDTAVYYCARIVIVGVLRFQEWLSSDGMDVWGQGTTVTVSS VL: DIVMTQTPSSVSASVGDRVTITCRASQAISGGLAWYQQKAGKAPKLLIYAASNLPSGVPSRFSGSGSGTDFTLTISSLQPEDFATYYCQQANSFPFTFGQGTRLEIK ) = 0.544

Memo: ADI-15635 (antibody, V domains shown, IgG; also called Antibody Number 200) VH: EVQLLESGGGLVKPGGSLRLSCAASGFTISGYNMFWVRQPPGKGLEWVSSITAGSSYLNYADSVKGRFIVSRDNAKNSLYLQMNSLRAEDTAVYFCARAPLLPAMMDLWGQGTTVTVSS VL: QSVLTQPPSVSGAPGQRVTISCTGSSSNIGAGYDVHWYQQLPGTAPKLLIYTNNNRPSGVPDRFSGSKSGTSASLAITGLQAEDEADYYCQSYDRSLNGYVFGTGTKVTVL , reported Neut IC50 (ug/ml) subtype A: 0.115

ADI-15565 (antibody, V domains shown, IgG) VH: QVQLVQSGAEVKKPGASVKVSCKASGYTFTNDINWVRQATGQGLEWMGWMNPNNGHTGYAQSFEGRVSMTRNSAINTAYLELSSLRFDDTAIYYCVYNFWSDSSVSWGQGTLVTVSS VL: QSVVTQPPSVSGAPGQSVAISCTGSSSNIGPGYDVHWYQQLPGAAPKLLIYGDSNRPSGVPDRFSTSKSGTSVSLAITGLQAEDEADYYCQSYDSSLRGYVFGTGTKLTVL yielded Neut IC50 (ug/ml) subtype A of 21.3

Data origin: patent US20220144922A1
